Hey, just so you know, these numbers are from patent US20260258115A1.

Reported pKd values follow for various binders
biological target: RSV prefusion F (preF), DS-Cav1 (respiratory syncytial virus, UniProt P03420 26-513); assay: BLI, IgG on sensor, 100 nM antigen
# log scale: pKd equals minus log10 of the concentration in mol/L

ADI-41374 (antibody, V domains shown, IgG1; also called Ab 671) VH: QVQLVQSGAEVKKPGSSVKVSCKASGGTFSNHAIDWVRQAPGQGLEWMGRIIPMVGLATYTRKFQGRVTISVDKSTSTAYMELSSLISDDTAVYYCARRTPEMAWGYWGQGTTVTVSS VL: DIVMTQTPSSLSASVGDRVTITCQASQDIRYYVNWYQQKPGKAPKLLIYDASTLETGVPSRFSGRGSGTDFTLIISSLQPEDIATYYCQQYGDLPTFGQGTRLEIK: 8.86
ADI-41404 (antibody, V domains shown, IgG1; also called Ab 696) VH: QVQLVQSGAEVKKPGSSVKVSCKASGGTFSSYGISWVRQAPGQGLEWMGGIIPIFGTVSYAQKFRGRLTITAHEPTSTAYMDLSSLRSEDTAVYYCARINGRGWELSSLNYYYGMDVWGQGTTVTVSS VL: EIVLTQSPGTLSLSPGERGTLSCRASQSVASSYLAWYQQKPGQAPRLLIYGATSRATGIPDRFSGSGSGTDFTLTISRLEPEDFAVYYCQQYGSSLFTFGGGTKVDIK: 7.32
ADI-41453 (antibody, V domains shown, IgG1; also called Ab 737) VH: QVQLVQSGAEVRKPGASVKVSCKASGYTFSIYDMNWVRQAPGQGLEWMGWMNPNSGNTGYAQKFQGRVTMTGDTSISTAYMELSSLTSEDTAVYYCAVMYGDYPGYWGQGSLVTVSS VL: SYELTQPLSVSVALGQTARITCGGNNIGSKSVHWYQQKPGQAPVLVIYRDAKRPSGIPERFSGSNSGNTATLTISGAQAGDEADYYCQVWDSNAWIFGGRTKLTVL: 8.66

Lab note: measured pKd of ADI-41376 (antibody, V domains shown, IgG1; also called Ab 673) VH: QVQLQESGGGVVQPGRSLRLSCAASGFTFSSYAMHWVRQAPGKGLEWVAVISFDGTANKYYADSVKGRFAISRDNSKNTLYLQMNSLRAEDTAVYYCAKDDAIYSGGWVGDAFDLWGQGTMVTVSS VL: EIVLTQSPATLSVSPGERATLSCRASQGVNSNLAWYQQKPGQAPRLLMYGASTRATGIPARFSGSGSETEFTLTISSLQSEDFAVYYCQQYNNWPRTFGQGTKVDIK was 8.38

Value of measured pKd for the entry ADI-41449 (antibody, V domains shown, IgG1) VH: EVQLVESGGGLVKPGGSLRLSCAASGFSFSSYRVNWVRQAPGKGLEWVSSITGGSSFIDYADSVKGRFTISRDNAKNSLFLQMNSLRAEDTAVYFCARDSMTTVTNSLAFDIWGQGTMVTVSS VL: QSVLTQPPSVSGAPGQRVTISCTGSSSNIGVGYDVQWYQQLPGTAPKLLIYSNNKRPSGVPDRFSGSKSGTSASLAITGLQAEDEADYYCQSYDRSLSVVFGGGTKVTVL : 9.29
